target: the molecule itself; test: Thioflavin-T fluorescence (amyloid formation); 20 µM p16 (series 5-60 µM), 10 µM ThT, oxidant (200 µM diamide, or H2O2 with or without bicarbonate) added at the start, 4 mM HEPES pH 7.4, 25 °C, quiescent
readoutLabel: binding result

p16^INK4a L37S (recombinant, stabilizing mutation) (natural protein, human, p16INK4a, UniProt P42771; source: E. coli BL21(DE3), purified (Ni-NTA, SEC, TEV cleavage, second Ni-NTA, desalting); not shown: His6, N-terminal, cleaved; protein A tag, N-terminal, cleaved) GAMEPAAGSSMEPSADWLATAAARGRVEEVRALLEAGASPNAPNSYGRRPIQVMMMGSARVAELLLLHGAEPNCADPATLTRPVHDAAREGFLDTLVVLHRAGARLDVRDAWGRLPVDLAEELGHRDVARYLRAAAGGTRGSNHARIDAAEGPSDIPD | binds
p16^INK4a D84N (recombinant) (natural protein, human, p16INK4a, UniProt P42771; previously reported cancer mutation; source: E. coli BL21(DE3), purified (Ni-NTA, SEC, TEV cleavage, second Ni-NTA, desalting); not shown: His6, N-terminal, cleaved; protein A tag, N-terminal, cleaved) GAMEPAAGSSMEPSADWLATAAARGRVEEVRALLEAGALPNAPNSYGRRPIQVMMMGSARVAELLLLHGAEPNCADPATLTRPVHNAAREGFLDTLVVLHRAGARLDVRDAWGRLPVDLAEELGHRDVARYLRAAAGGTRGSNHARIDAAEGPSDIPD | binds
